Data origin, for the record: ChEMBL document CHEMBL3885861

# Species on record: Rattus norvegicus
# test: Open TG-GATES - Regimen: Daily Repeat
# Type: toxicity, organism-based, Sprague-Dawley
# Set-up: regimen Daily Repeat, gender Male, age 6 weeks
# conditionsUsed: in vivo, po, 0 mg/kg, […], tissue Liver, route gavage, dose level Control, time 14 day
resultType: LIVER (g)

{"molecule": "CC(C)(S)[C@@H](N)C(=O)O", "resultUnits": "g", "readoutValue": 15.3}
{"molecule": "C[C@](N)(Cc1ccc(O)c(O)c1)C(=O)O", "resultUnits": "g", "readoutValue": 12.7}
{"molecule": "CCN1CCCC1CNC(=O)c1cc(S(N)(=O)=O)ccc1OC (stereo not given) [SULPIRIDE]", "resultUnits": "g", "readoutValue": 13.1}
{"molecule": "CC(=N)S [THIOACETAMIDE]", "resultUnits": "g", "readoutValue": 13.8}
{"molecule": "CC(=O)Oc1cc(C(C)C)c(OCCN(C)C)cc1C", "resultUnits": "g", "readoutValue": 13.3}
{"molecule": "Nc1nc(N)c2nc(-c3ccccc3)c(N)nc2n1", "resultUnits": "g", "readoutValue": 13.8}
{"molecule": "CC(C)C(=O)Nc1ccc([N+](=O)[O-])c(C(F)(F)F)c1 [FLUTAMIDE]", "resultUnits": "g", "readoutValue": 13.4}
{"molecule": "O=C(N[C@H](CO)[C@H](O)c1ccc([N+](=O)[O-])cc1)C(Cl)Cl", "resultUnits": "g", "readoutValue": 13.9}
{"molecule": "C[C@]12CCC(=O)C=C1CC[C@@H]1[C@@H]2CC[C@@]2(C)[C@H]1CC[C@]2(C)O", "resultUnits": "g", "readoutValue": 13.6}
{"molecule": "C#C[C@]1(O)CC[C@H]2[C@@H]3CCc4cc(O)ccc4[C@H]3CC[C@@]21C", "resultUnits": "g", "readoutValue": 14.4}
{"molecule": "CCC(C)(C)C(=O)O[C@H]1C[C@@H](C)C=C2C=C[C@H](C)[C@H](CC[C@@H]3C[C@@H](O)CC(=O)O3)[C@H]21", "resultUnits": "g", "readoutValue": 14}
{"molecule": "CN1C(=O)OC(C)(C)C1=O", "resultUnits": "g", "readoutValue": 14.3}
{"molecule": "Oc1ncnc2[nH]ncc12", "resultUnits": "g", "readoutValue": 14.3}
{"molecule": "CCc1oc2ccccc2c1C(=O)c1cc(I)c(O)c(I)c1", "resultUnits": "g", "readoutValue": 15.1}
{"molecule": "CCSCC[C@H](N)C(=O)O", "resultUnits": "g", "readoutValue": 13}

====

// values below are reported MCV
# Species on record: Rattus norvegicus
# test: Open TG-GATES - Regimen: Daily Repeat
# Format: toxicity, organism-based, Sprague-Dawley
# Set-up: regimen Daily Repeat, gender Male, age 6 weeks
# conditionsUsed: in vivo, po, 0 mg/kg, […], tissue Blood, route gavage, dose level Control, time 14 day
resultType: MCV (fL)

{"molecule": "O=C(O)c1cccnc1", "resultType": "MCV", "readoutValue": 60.4}
{"molecule": "CN1C(=O)OC(C)(C)C1=O", "resultType": "MCV", "readoutValue": 61.2}
{"molecule": "Nc1nc(N)c2nc(-c3ccccc3)c(N)nc2n1", "resultType": "MCV", "readoutValue": 59.2}
{"molecule": "CCc1oc2ccccc2c1C(=O)c1cc(I)c(O)c(I)c1", "resultType": "MCV", "readoutValue": 61.5}
{"molecule": "CC(=O)Oc1cc(C(C)C)c(OCCN(C)C)cc1C", "resultType": "MCV", "readoutValue": 59}
{"molecule": "C[C@](N)(Cc1ccc(O)c(O)c1)C(=O)O", "resultType": "MCV", "readoutValue": 60.4}
{"molecule": "C[C@]12CCC(=O)C=C1CC[C@@H]1[C@@H]2CC[C@@]2(C)[C@H]1CC[C@]2(C)O", "resultType": "MCV", "readoutValue": 59.8}
{"molecule": "C#C[C@]1(O)CC[C@H]2[C@@H]3CCc4cc(O)ccc4[C@H]3CC[C@@]21C", "resultType": "MCV", "readoutValue": 60.2}
{"molecule": "CC(C)(S)[C@@H](N)C(=O)O", "resultType": "MCV", "readoutValue": 60.2}
{"molecule": "CCSCC[C@H](N)C(=O)O", "resultType": "MCV", "readoutValue": 58.9}
{"molecule": "CC(=N)S [THIOACETAMIDE]", "resultType": "MCV", "readoutValue": 61.1}
{"molecule": "CC(C)C(=O)Nc1ccc([N+](=O)[O-])c(C(F)(F)F)c1 [FLUTAMIDE]", "resultType": "MCV", "readoutValue": 60.9}
{"molecule": "CCN1CCCC1CNC(=O)c1cc(S(N)(=O)=O)ccc1OC (stereo not given) [SULPIRIDE]", "resultType": "MCV", "readoutValue": 60}
{"molecule": "O=C(N[C@H](CO)[C@H](O)c1ccc([N+](=O)[O-])cc1)C(Cl)Cl", "resultType": "MCV", "readoutValue": 62.3}
{"molecule": "Oc1ncnc2[nH]ncc12", "resultType": "MCV", "readoutValue": 60.5}

====

# Species on record: Rattus norvegicus
# test: Open TG-GATES - Regimen: Daily Repeat
# Type: toxicity, organism-based, Sprague-Dawley
# Design: regimen Daily Repeat, gender Male, age 6 weeks
# conditionsUsed: in vivo, po, 0 mg/kg, […], tissue Kidney, route gavage, dose level Control, time 7 day

{"compound": "CC(C)C(=O)Nc1ccc([N+](=O)[O-])c(C(F)(F)F)c1 [FLUTAMIDE]", "resultUnits": "g", "KIDNEY_R": 1.1}
{"compound": "CC(=O)Oc1cc(C(C)C)c(OCCN(C)C)cc1C", "resultUnits": "g", "KIDNEY_R": 1.1}
{"compound": "CCN1CCCC1CNC(=O)c1cc(S(N)(=O)=O)ccc1OC (centres undefined) [SULPIRIDE]", "resultUnits": "g", "KIDNEY_R": 1.1}
{"compound": "Nc1nc(N)c2nc(-c3ccccc3)c(N)nc2n1", "resultUnits": "g", "KIDNEY_R": 1.2}
{"compound": "C[C@](N)(Cc1ccc(O)c(O)c1)C(=O)O", "resultUnits": "g", "KIDNEY_R": 1}
{"compound": "CCC(C)(C)C(=O)O[C@H]1C[C@@H](C)C=C2C=C[C@H](C)[C@H](CC[C@@H]3C[C@@H](O)CC(=O)O3)[C@H]21", "resultUnits": "g", "KIDNEY_R": 1.1}
{"compound": "CCc1oc2ccccc2c1C(=O)c1cc(I)c(O)c(I)c1", "resultUnits": "g", "KIDNEY_R": 1.2}
{"compound": "CCSCC[C@H](N)C(=O)O", "resultUnits": "g", "KIDNEY_R": 1.1}
{"compound": "CC(=N)S [THIOACETAMIDE]", "resultUnits": "g", "KIDNEY_R": 1.1}
{"compound": "C[C@]12CCC(=O)C=C1CC[C@@H]1[C@@H]2CC[C@@]2(C)[C@H]1CC[C@]2(C)O", "resultUnits": "g", "KIDNEY_R": 1.1}
{"compound": "CN1C(=O)OC(C)(C)C1=O", "resultUnits": "g", "KIDNEY_R": 1.1}
{"compound": "Oc1ncnc2[nH]ncc12", "resultUnits": "g", "KIDNEY_R": 1.1}
{"compound": "CC(C)(S)[C@@H](N)C(=O)O", "resultUnits": "g", "KIDNEY_R": 1.1}
{"compound": "O=C(N[C@H](CO)[C@H](O)c1ccc([N+](=O)[O-])cc1)C(Cl)Cl", "resultUnits": "g", "KIDNEY_R": 1.2}

====

# Organism: Rattus norvegicus
# test: Open TG-GATES - Regimen: Single
# Format: toxicity, organism-based, Sprague-Dawley
# Design: regimen Single, gender Male, age 6 weeks
# conditionsUsed: in vivo, po, 0 mg/kg, 3 h, tissue Plasma, route gavage, dose level Control
// values below are reported K
resultType: K (meq/L)

{"molecule": "C[C@]12CCC(=O)C=C1CC[C@@H]1[C@@H]2CC[C@@]2(C)[C@H]1CC[C@]2(C)O [METHYLTESTOSTERONE]", "readoutValue": 4.4}
{"molecule": "CCc1oc2ccccc2c1C(=O)c1cc(I)c(O)c(I)c1 [BENZIODARONE]", "readoutValue": 4.6}
{"molecule": "CCSCC[C@H](N)C(=O)O [ETHIONINE]", "readoutValue": 3.9}
{"molecule": "CCN1CCCC1CNC(=O)c1cc(S(N)(=O)=O)ccc1OC (stereo unspecified) [SULPIRIDE]", "readoutValue": 4.5}
{"molecule": "Nc1nc(N)c2nc(-c3ccccc3)c(N)nc2n1", "readoutValue": 3.9}
{"molecule": "C[C@](N)(Cc1ccc(O)c(O)c1)C(=O)O [METHYLDOPA]", "readoutValue": 4.6}
